Assay: SK-BR-3 cell growth inhibitors, pilot screen, 24 h, human (AID 572);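 note: compound exposure lasted between 18 and 24 h rather than exactly 24 h; 100% = carrier-treated control wells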
Settings: SK-BR-3 viability, CellTiter-Glo luminescence, at 10 µM, stronger effect = lower value
Listed below: viability values for each entry.
# number only, unit % dropped from output

Please review the entries below; each comes with its answer.
COc1cccc(OC)c1C(=O)N1CCOCC1 ... 100
CCN(CCCCOC(=O)c1ccc(OC)c(OC)c1)C(C)Cc1ccc(OC)cc1 (stereo not drawn) ... 88
COC(=O)CCN(C(=O)c1ccc2c(c1)OCO2)c1ccccn1 ... 96
CC(=O)Oc1cccc2c1C(=O)c1c(OC(C)=O)cc(C(=O)O)cc1C2=O ... 90
CCOc1ncccc1C(=O)Nc1ccc(Cl)cc1 ... 92

Now consider the entry below.
Return reported viability; argument: COc1ccc(CCNc2oc(COc3ccc(F)cc3)nc2C#N)cc1
164

----------
Test: SK-BR-3 cell growth inhibitors, pilot screen, 24 h, human (AID 572);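 note: compound exposure lasted between 18 and 24 h rather than exactly 24 h; 100% = carrier-treated control wells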
Details: SK-BR-3 viability, CellTiter-Glo luminescence, at 10 µM, stronger effect = lower value
TEST READOUT: viability (%)
# number only, unit % dropped from output

Please review the entries below; each comes with its answer.
O=C(Nc1ccc(N2CCCC2)cc1)c1cccc(F)c1 ... 134
COc1ccc(-c2[nH]nc3c2C(c2ccncc2)C(C#N)=C(N)O3)cc1 (configuration not stated) ... 71
CCOC(=O)Nc1ccc(NS(=O)(=O)c2ccc(C)cc2)cc1 ... 72
CC(C)N=c1cc2n(-c3ccc(Cl)cc3)c3ccccc3nc-2cc1Nc1ccc(Cl)cc1 ... 102
CC(C)OC(=O)CSc1nnnn1-c1ccc2c(c1)OCCO2 ... 99.5

Return reported viability; argument: O=C(O)c1ccccc1C(=O)Nc1ccccc1
121

Return reported viability; argument: CC(C)c1cc(C(=O)Nc2cccnc2)no1
110

Return reported viability; argument: Cc1nc2ccccc2c(=O)n1NC(=O)c1c(O)c2c(n(CC(C)C)c1=O)CCCC2
88.5

Return reported viability; argument: O=C(O)/C=C/c1ccc(O)c(O)c1
94

Return reported viability; argument: CCOc1ccc2nc(NC(=O)C(NS(=O)(=O)c3cccs3)C(C)C)sc2c1 (configuration not stated)
116

Return reported viability; argument: COc1ccc(-c2noc(CCN3C(=O)c4ccccc4C3=O)n2)cc1OC
140

Return reported viability; argument: COC1=CC(=O)CC(C)C12Oc1c(Cl)c(OC)cc(OC)c1C2=O (configuration not stated)
100

----------
Test: reversal of MRP1-mediated doxorubicin resistance, pilot screen, H69AR cells, doxorubicin co-treatment (AID 601)
Details: H69AR cells + 2 uM doxorubicin, CellTiter-Glo, 72 h; measured here: viability with 2 uM doxorubicin; at 10 µM; stronger effect = lower value
TEST READOUT: viability (%)
# number only, unit % dropped from output

CCN(CC)CCOC(=O)C1(c2ccc(OC)c(OC)c2)CCCC1 ... 80.5
COc1ccc(N2CCN(C(=O)CN3C(=O)C4CC=CCC4C3=O)CC2)cc1 (configuration not stated) ... 91.5
CC1CCN(C(=S)c2ccccc2O)CC1 ... 89.9
CCCc1cc(Nc2cccc(OC)c2)n2ncnc2n1 ... 81.8
O=[n+]1cc(-c2ccc(F)cc2)n([O-])c2c1CCC2 ... 89.4
COc1cc2c(cc1OC)C(c1ccccc1O)N(C1CC(=O)N(c3ccccc3)C1=O)CC2 (configuration not stated) ... 81.5
CCN1CCN(c2c(Cl)cccc2NC(=O)c2ccc3c(c2)OCCO3)CC1 ... 80.4
COc1ccc(OC)c(NC(=O)C2C3CC4OC(=O)C2C4C3)c1 (configuration not stated) ... 90
NC(=O)c1oc2ccc(Cl)cc2c1NC(=O)CN1CCOCC1 ... 88.4
CC1(C)Cc2c(c(=S)nc(-c3ccccc3)n2CCO)CO1 ... 91.9

Return reported viability; argument: CCOC(=O)C1=C(C)N(C)C(C)=C(C(=O)OCC)C1c1cccnc1
91.5

Return reported viability; argument: O=C(O)CCc1ccc(-c2cccs2)n1NC(=O)c1ccco1
88.5

----------
Listed below: viability values for each entry.
Experiment: reducers of endogenous Her2 protein level, primary screen, SKBR3 breast tumor cells, AlphaScreen, ATP viability (AID 461);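 note: percent of carrier control wells set as 100% viability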
Details: 18-24 h, measured here: SKBR3 viability, ATP luminescence, at 10 µM
# number only, unit % dropped from output

O=C(O)c1ccc2noc(-c3ccccc3)c2c1 ... 127
FC(F)(F)C(F)(F)C(F)(F)c1nnc2ccc(N3CCOCC3)nn12 ... 97.5
COc1ccc(OC)c(C(=O)CSc2nc3ncccc3[nH]2)c1 ... 94
Cc1ccc(S(=O)(=O)CC2CSc3nnc(C)c(=O)n32)cc1 (stereo not given) ... 136

Now consider the entry below.
Return reported viability; argument: CCOC(=O)c1ccc(NS(=O)C23CC4CC(CC(C4)C2)C3)cc1 (stereo not given)
95.5

----------
Assay: growth suppression of yeast trafficking mutant, preliminary HTS, modulators of trafficking downstream of Golgi apparatus project, 1536-format plate, OD 615 nm (AID 637)
Conditions: yeast transport mutant growth, absorbance 615 nm, 18 h; stronger effect = higher value
TEST READOUT: inhibition (%)
# number only, unit % dropped from output

Please review the entries below; each comes with its answer.
O=C(Cc1nc2ccccc2s1)c1ccc(O)cc1O ... -0.18
CSc1ncc(Cl)c(C(=O)Nc2ccc(S(=O)(=O)N3CCOCC3)cc2)n1 ... 0.36
CN1C(=O)c2oc3ccccc3c(=O)c2C1c1ccccn1 (stereo not given) ... -1.09
Cc1cc(C(F)(F)F)c2c(C)nn(CCc3nn[nH]n3)c2n1 ... 12.2
COc1ccc(C(=O)Nc2ccc(S(=O)(=O)Nc3nccnc3OC)cc2)cc1OC ... 4.6
Cc1ccc(OCC(O)Cn2c(NCCc3ccccc3)nc3c2c(=O)[nH]c(=O)n3C)cc1 (stereo not given) ... -1.27
Cc1ccc(N(CC(O)CN2CCCC2)S(=O)(=O)c2ccc(C)cc2)cc1 (stereo not given) ... -1.94
COc1ccc(/C=N/n2cc(-c3ccc(OC)cc3)nc2N)cc1 ... -8

Return reported inhibition; argument: O=C(c1csc2ccccc12)N1CCCCCC1
-3.87

Return reported inhibition; argument: O=C(Cn1cnc2c(cnn2-c2ccccc2)c1=O)NCCc1ccccc1
-5.74

Return reported inhibition; argument: CC(=O)[C@H]1CC[C@H]2[C@@H]3CCC4=CC(=O)CC[C@]4(C)[C@H]3CC[C@]12C
-1

Return reported inhibition; argument: CC(C)(C)n1nnnc1C(c1cccc(C#N)c1)N1CCC(Cc2ccccc2)CC1 (stereo not given)
1.77

Return reported inhibition; argument: CCOC(=O)/C=C1\SCC(=O)N1Cc1nnc(-c2ccccc2Br)o1
1.82

Return reported inhibition; argument: CCCSc1nnc(-c2ccccc2NC(=O)CC)c(=O)[nH]1
3.97

Return reported inhibition; argument: O=C(CC(Cc1ccccc1)C(=O)O)NCCc1ccc2c(c1)OCO2 (stereo not given)
-7.17

Return reported inhibition; argument: O=C(Nc1cccc2ncccc12)c1ccc2c(c1)OCCO2
-3

Return reported inhibition; argument: CN(C)c1nc(N)nc(CSc2nnnn2-c2cccc3ccccc23)n1
4.13

Return reported inhibition; argument: CC(C)OC(=O)CCCCCN1C(=O)CSC1=S
-6.13

Return reported inhibition; argument: COc1ccc(Cc2nnc3n2N=C(c2cc4ccccc4o2)CS3)cc1OC
-0.67

Return reported inhibition; argument: CC(=O)Nc1ccc(-c2nn[nH]n2)cc1Cl
-2.9

Return reported inhibition; argument: CN1CCN(CCCN2c3ccccc3Sc3ccc(C(F)(F)F)cc32)CC1
53.8

Return reported inhibition; argument: CC(=O)/C(C[N+]1(C)CCCCC1)=N\O
0.55

----------
Experiment: reversal of MRP1-mediated doxorubicin resistance, pilot screen, H69AR cells, doxorubicin co-treatment (AID 601)
Conditions: H69AR cells, CellTiter-Glo, 72 h; compound alone cytotoxicity; at 10 µM
TEST READOUT: viability (%)
# number only, unit % dropped from output

CC(C)Cc1nc(N2CCN(C(=O)c3ccco3)CC2)c(C#N)c2c1CCC2 ... 84.5
Oc1ccc(/C=C/c2cc(O)cc(O)c2)cc1 ... 76.9
CCc1nc(C)ccc1OCC(=O)O ... 93
CCOC(=O)c1cc(-c2ccc(N)cc2)sc1N ... 93.4

Now consider the entry below.
Return reported viability; argument: COc1ccc(OC)c(NC(=O)C2C3CC4OC(=O)C2C4C3)c1 (stereo not given)
98.3

----------
Assay: growth suppression of yeast trafficking mutant, preliminary HTS, modulators of trafficking downstream of Golgi apparatus project, 1536-format plate, OD 615 nm (AID 637)
Details: yeast transport mutant growth, absorbance 615 nm, 18 h; stronger effect = higher value
Listed below: inhibition values for each entry.
# number only, unit % dropped from output

Please review the entries below; each comes with its answer.
CCOc1ccc2nc(SCC(=O)Nc3ncccn3)[nH]c2c1 ... 3.45
CCOC(=O)C1CCN(C(=O)Nc2ccc3snnc3c2)CC1 ... -0.67
O=C(NCCN1CCOCC1)NC1(C(F)(F)F)Oc2ccc(Cl)cc2O1 (stereo unspecified) ... 0
Cc1ccc(C)c2[nH]c(=O)c(CCNC(=O)c3ccc(Br)o3)cc12 ... -4.6
OCC(O)CN1CCN(c2ccccc2)CC1 (stereo unspecified) ... 3.83

Return reported inhibition; argument: COc1cc(C(=O)Nc2cc(C)ccn2)cc(OC)c1OC
-6.13

Return reported inhibition; argument: CCOC(=O)c1cc(-c2ccccc2)sc1N
-2

Return reported inhibition; argument: Cc1cnc(NC(=O)CSc2nnc(-c3ccccc3)n2Cc2ccccc2)s1
13.3

Return reported inhibition; argument: COC(=O)c1nnn(-c2ccccc2)c1N
3.61

Return reported inhibition; argument: COc1cc2c(cc1OC)CN(Cc1nc3ccsc3c(=O)[nH]1)CC2
3.17

Return reported inhibition; argument: CCn1c(CSc2nnc(-c3cccnc3)n2-c2ccccc2C)nc2cc(C(=O)O)ccc21
-7.3

Return reported inhibition; argument: O=C(CN1c2cccc3cccc(c23)S1(=O)=O)N1CCOCC1
0.16

Return reported inhibition; argument: O=C(OC1CCc2ccccc2C1=O)c1ccccc1O (stereo unspecified)
-1.27

Return reported inhibition; argument: CCn1ncc(C2=NOC(C(=O)Nc3ccc4c(c3)OCO4)C2)c1C (stereo unspecified)
-4.92

Return reported inhibition; argument: S=c1[nH]nc(Cc2ccccc2)n1Cc1ccco1
-6.94

Return reported inhibition; argument: Cc1cn(C2CC3OCC3O2)c(=O)[nH]c1=O (stereo unspecified)
-16.2

Return reported inhibition; argument: COC(=O)c1cc(OC)c(OC)cc1NC(=O)CC1CCCCC1
-2.9

Return reported inhibition; argument: O=C(NCc1ccc2c(c1)OCO2)C1CCC(CNS(=O)(=O)c2ccccc2)CC1 (stereo unspecified)
1.15

Return reported inhibition; argument: COCC(=O)n1nc(NCc2ccc(OC)cc2)nc1NCc1ccc(OC)cc1
28.6

Return reported inhibition; argument: C=CCSc1nnc(-c2ccc(Cl)cc2Cl)o1
0.73

Return reported inhibition; argument: Cc1ccc(-c2nnn(CC(=O)N(CC(=O)NCC3CCCO3)c3ccccc3)n2)o1 (stereo unspecified)
-1.11
